Target: EPHB1 (UniProt P54762)
Sequence (P54762 whole entry, looked up): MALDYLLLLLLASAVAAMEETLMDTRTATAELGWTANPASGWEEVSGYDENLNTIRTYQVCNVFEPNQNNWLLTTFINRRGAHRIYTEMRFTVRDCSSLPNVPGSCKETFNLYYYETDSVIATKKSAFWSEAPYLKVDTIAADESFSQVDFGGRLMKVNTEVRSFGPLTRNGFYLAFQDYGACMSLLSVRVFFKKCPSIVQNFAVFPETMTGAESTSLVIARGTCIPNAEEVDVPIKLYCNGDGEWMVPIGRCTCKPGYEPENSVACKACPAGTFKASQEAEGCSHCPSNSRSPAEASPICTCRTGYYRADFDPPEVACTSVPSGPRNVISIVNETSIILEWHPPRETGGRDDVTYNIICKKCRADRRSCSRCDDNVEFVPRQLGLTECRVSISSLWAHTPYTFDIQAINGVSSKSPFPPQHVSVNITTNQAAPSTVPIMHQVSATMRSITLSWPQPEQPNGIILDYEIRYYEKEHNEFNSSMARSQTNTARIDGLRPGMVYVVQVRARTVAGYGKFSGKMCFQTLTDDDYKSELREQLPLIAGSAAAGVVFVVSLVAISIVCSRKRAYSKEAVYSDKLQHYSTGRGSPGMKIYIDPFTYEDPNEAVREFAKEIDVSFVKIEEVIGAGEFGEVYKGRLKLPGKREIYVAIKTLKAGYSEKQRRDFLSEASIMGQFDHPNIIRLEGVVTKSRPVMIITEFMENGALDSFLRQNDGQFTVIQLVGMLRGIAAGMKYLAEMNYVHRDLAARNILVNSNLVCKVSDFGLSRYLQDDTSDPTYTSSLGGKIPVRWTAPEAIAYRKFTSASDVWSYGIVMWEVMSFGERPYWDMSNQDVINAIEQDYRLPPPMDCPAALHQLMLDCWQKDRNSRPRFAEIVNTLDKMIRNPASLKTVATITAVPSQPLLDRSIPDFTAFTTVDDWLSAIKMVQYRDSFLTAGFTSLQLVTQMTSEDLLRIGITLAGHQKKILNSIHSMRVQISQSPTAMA
Assay: phosphorylation enrichment, bacterial display (enrichment ratio); higher = better substrate or ligand; peptides without Tyr show the background;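 also: 11-residue human phosphosite peptides and single-mutation variants displayed on the E. coli surface, counted by deep sequencing, each peptide's frequency after selection divided by its frequency in the unselected input library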;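 also: frequency after pTyr selection over input frequency; kinase dosed for 20-30% of maximal phosphorylation in three min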
I would appreciate it if you labelled entries yes when phosphorylation enrichment is 0.5 or higher, otherwise no.

Inquiry: Entry DTERIYDDDFF [UBA1_Y560] : is its phosphorylation enrichment no less than 0.5?
Reply text: yes

Inquiry: Entry FYDANCDGKEY [MAPRE2_Y162_Y162C] : is its phosphorylation enrichment no less than 0.5?
Reply text: yes

Inquiry: Entry CTTIHNNFMCN [TP53_Y234_Y234N_YF] : is its phosphorylation enrichment no less than 0.5?
Reply text: yes

Inquiry: Entry PGQAAYQKVVA [HBB_Y131_V127G] : is its phosphorylation enrichment no less than 0.5?
Reply text: yes

Inquiry: Entry EKSREYDRLFE [PIK3R1_Y463_YF] : is its phosphorylation enrichment no less than 0.5?
Reply text: no

Inquiry: Entry KREPQYSSHSS [SIPA1L3_Y1265_G1261R] : is its phosphorylation enrichment no less than 0.5?
Reply text: no

Inquiry: Entry TSSAGYRRTPS [ABI1_Y333_G331A] : is its phosphorylation enrichment no less than 0.5?
Reply text: no

Inquiry: Entry LPEHPYHSRPR [NDUFA8_Y142_N140H] : is its phosphorylation enrichment no less than 0.5?
Reply text: yes

Inquiry: Entry FCRHNYGAVES [HLA-DRB1_Y112_V114A_YF] : is its phosphorylation enrichment no less than 0.5?
Reply text: yes

Inquiry: Entry SHNKYYMLVAR [MFSD8_Y134] : is its phosphorylation enrichment no less than 0.5?
Reply text: yes

Inquiry: Entry QKPLGYFRVNL [GALE_Y104_D103G_YF] : is its phosphorylation enrichment no less than 0.5?
Reply text: yes

Inquiry: Entry GPQGFYSNKLV [PTPN14_Y506_V505F] : is its phosphorylation enrichment no less than 0.5?
Reply text: no

Inquiry: Entry GTFVIYVRFGG [FLNB_Y1687_YF] : is its phosphorylation enrichment no less than 0.5?
Reply text: no

Inquiry: Entry QSSALYEDHFL [ASS1_Y83_R86H_YF] : is its phosphorylation enrichment no less than 0.5?
Reply text: yes

Inquiry: Entry DSYWSYCNAVA [SLC20A2_Y436_S434W] : is its phosphorylation enrichment no less than 0.5?
Reply text: yes

Inquiry: Entry LDAFIYDAAVL [GRIN2A_Y730] : is its phosphorylation enrichment no less than 0.5?
Reply text: yes

Inquiry: Entry FLNSSYINIST [IL23R_Y178_T175N_YF] : is its phosphorylation enrichment no less than 0.5?
Reply text: no

Inquiry: Entry KPVDTYFDSTR [DYNC2H1_Y2230_M2227V_YF] : is its phosphorylation enrichment no less than 0.5?
Reply text: yes

Inquiry: Entry EAKENYGKTLK [CHL1_Y291_T287A] : is its phosphorylation enrichment no less than 0.5?
Reply text: no

Inquiry: Entry DMGAQYAAASR [ARID1B_Y483_P488R] : is its phosphorylation enrichment no less than 0.5?
Reply text: no

Inquiry: Entry NTCNRYCCDEI [ITGB3_Y660_R662C] : is its phosphorylation enrichment no less than 0.5?
Reply text: yes

Inquiry: Entry TVHPGYGFLSE [PCCA_Y143_A138T] : is its phosphorylation enrichment no less than 0.5?
Reply text: no

Inquiry: Entry CSKRFYQLTKL [AR_Y858_R855K] : is its phosphorylation enrichment no less than 0.5?
Reply text: yes

Inquiry: Entry NFNPNYCFAGK [ALK_Y1096_D1091N_YF] : is its phosphorylation enrichment no less than 0.5?
Reply text: yes

Inquiry: Entry NVVNEYSSELE [FGB_Y172] : is its phosphorylation enrichment no less than 0.5?
Reply text: yes

Inquiry: Entry YKEDPYLVVNP [MCM6_Y810_E806K] : is its phosphorylation enrichment no less than 0.5?
Reply text: no

Inquiry: Entry TMKSRYMELFD [BBS2_Y644_YF] : is its phosphorylation enrichment no less than 0.5?
Reply text: yes

Inquiry: Entry AKKKMYSLKTK [AGXT_Y231_R233L] : is its phosphorylation enrichment no less than 0.5?
Reply text: no

Inquiry: Entry HNQDGYSFPSR [LDLR_Y845_YF] : is its phosphorylation enrichment no less than 0.5?
Reply text: yes

Inquiry: Entry ARLEYYENEKK [IRS1_Y47] : is its phosphorylation enrichment no less than 0.5?
Reply text: yes

Inquiry: Entry IPGGIYDADLN [CST4_Y35] : is its phosphorylation enrichment no less than 0.5?
Reply text: yes

Inquiry: Entry RDLTDYLMKIL [ACTA1_Y190] : is its phosphorylation enrichment no less than 0.5?
Reply text: yes

Inquiry: Entry EEVKAYLDFRE [CHAC2_Y78] : is its phosphorylation enrichment no less than 0.5?
Reply text: yes

Inquiry: Entry DLQDEYDFKCK [STAT1_Y170] : is its phosphorylation enrichment no less than 0.5?
Reply text: yes

Inquiry: Entry VIVRMYDFHVL [RPF2_Y109_G106V_YF] : is its phosphorylation enrichment no less than 0.5?
Reply text: yes

Inquiry: Entry GHLFAYDWISI [BEST1_Y227_YF] : is its phosphorylation enrichment no less than 0.5?
Reply text: yes

Inquiry: Entry KLIETCFSKNF [PLP1_Y50_Y50C_YF] : is its phosphorylation enrichment no less than 0.5?
Reply text: yes

Inquiry: Entry ILQSMYGCDVG [HLA-B_Y123_T118I] : is its phosphorylation enrichment no less than 0.5?
Reply text: yes

Inquiry: Entry GIVEDYRPPLF [ACVRL1_Y421_F425L_YF] : is its phosphorylation enrichment no less than 0.5?
Reply text: no

Inquiry: Entry SISFDYCRVPM [BST2_Y8_T4I_YF] : is its phosphorylation enrichment no less than 0.5?
Reply text: yes

Inquiry: Entry WFQTKYEELQV [KRT6B_Y360_I365V_YF] : is its phosphorylation enrichment no less than 0.5?
Reply text: no

Inquiry: Entry MFFSTYDRDND [FGB_Y408] : is its phosphorylation enrichment no less than 0.5?
Reply text: yes

Inquiry: Entry GIKAAYEAERG [LMNA_Y81_L85R] : is its phosphorylation enrichment no less than 0.5?
Reply text: no

Inquiry: Entry QPSPSYDSSGG [TCF12_Y70_R74G] : is its phosphorylation enrichment no less than 0.5?
Reply text: no

Inquiry: Entry GRLFAYPDTHC [CAT_Y358_R363C] : is its phosphorylation enrichment no less than 0.5?
Reply text: yes

Inquiry: Entry KPPPTYESEEE [BRD4_Y599] : is its phosphorylation enrichment no less than 0.5?
Reply text: yes

Inquiry: Entry LKMLVYLDMSK [LRRC7_Y234] : is its phosphorylation enrichment no less than 0.5?
Reply text: yes

Inquiry: Entry IYHLSYLHNCE [PDE6B_Y227] : is its phosphorylation enrichment no less than 0.5?
Reply text: yes

Inquiry: Entry YRVAGYETQGG [TIA1_Y383] : is its phosphorylation enrichment no less than 0.5?
Reply text: no

Inquiry: Entry ALKKPYSVLYK [RPF2_Y59_G60S] : is its phosphorylation enrichment no less than 0.5?
Reply text: no

Inquiry: Entry LGRTRYQDVTG [MIPEP_Y510_H512D] : is its phosphorylation enrichment no less than 0.5?
Reply text: yes

Values compiled from the supplement of paper PMC10065799.
